Each item that follows carries a reported inhibition.
assay: 384-well plate pilot, post-Golgi transport modulator project, inhibition of yeast transport mutant growth (AID 636); conditions: absorbance 615 nm, about 18 h, stronger effect = higher value; note: test concentration not given here
Express it in %; write the number only.

Would you please look over these solved cases?
O=C(COc1ccc(S(=O)(=O)NC2CCCCC2)cc1Cl)NCC1CCCO1 (stereo not given) : -5.07
CC1=C(C(=O)OCc2ccccc2)C(c2ccc(C)o2)C2=C(CCCC2=O)N1 (stereo not given) : -6.89
CC(=O)N1CCN(c2ccc(N=Cc3c(O)n(Cc4ccccc4)c(=O)[nH]c3=O)cc2)CC1 : -0.91
N#CCc1c(C#N)c(N)nc(N2CCN(S(=O)(=O)c3ccccc3)CC2)c1C#N : -4.46
CC(=O)c1cccc(NC(=O)N2C3CCC2CC(O)(c2cccnc2)C3)c1 (stereo not given) : 0.41

INPUT: Report inhibition for COc1ccc(CC(NC(C)=O)C(=O)NC2CCN(C(=O)Nc3ccc(C#N)cc3)CC2)cc1OC (stereo not given)
OUTPUT: -4.13

INPUT: Output measured inhibition for this item: Cc1nc(NC(=O)C2CC3CCCC(C2)C3=O)sc1C (stereo not given)
OUTPUT: 0.39
